Biological target: pre-pro-insulin glargine
readout-type: desArg

{"protein": "trypsin variant SEQ ID NO: 41 (protein) IVGGYTCAANSIPYQVSLNSGSHRCGGSLINSQWVVSAAHCYKSRIQVRLGEHNIDVLEGNEQFINAAKIITHPNFNGNTLDNDIMLIKLSSPATLNSRVATVSLPRSCAAAGTECLISGWGNTKSSGSSHPSLLQCLKAPVLSDSSCKSSYPGQITGNMICVGFLEGGKDACQGDSGGPVVCNGQLQGIVSSGYGCAQKNKPGVYTKVCNYVNWIQQTIAAN", "desArg": "< 0.5 area %"}
{"protein": "trypsin variant SEQ ID NO: 99 (protein) IVGGYTCAANSIPYQVSLNSGSHRCGGSLINSQWVVSAAHCYKSRIQVRLGEHNIHVLEGNEQFINAAKIITHPNFNPNTLDNDIMLIKLSSPATLNSNVATVSLPTSCAAAGTECLISGWGNTSSSGSSYPSLLQCLKAPVLSDSSCKSSYPGQITGNMICVGFLEGGADACQGDSGGPVVCNGQLQGIVSSGYGCAQKNKPGVYTKVCNYVNWIQQTIAAN", "desArg": "0.9 area %"}

// moving on: another record for desArg
Q: What desArg value was documented for this protein, porcine trypsin variant S172A (SEQ ID NO: 2) (protein) IVGGYTCAANSIPYQVSLNSGSHFCGGSLINSQWVVSAAHCYKSRIQVRLGEHNIDVLEGNEQFINAAKIITHPNFNGNTLDNDIMLIKLSSPATLNSRVATVSLPRSCAAAGTECLISGWGNTKSSGSSYPSLLQCLKAPVLSDSSCKSSYPGQITGNMICVGFLEGGKDACQGDSGGPVVCNGQLQGIVSWGYGCAQKNKPGVYTKVCNYVNWIQQTIAAN ?
A: 19.1 area %

These data points were gathered from patent US20230303994.
